TESTED TARGET: HIV-1 WT RT (Human immunodeficiency virus type 1 group M subtype B, UniProt P04585)
Construct: The RT is a heterodimer consisting of two subunits, p66 (560 residues) and p51 (440 residues); purchased Roche
ASSAY COMMENT: HIV-1 RT inhibition assay (Roche kit, ELISA)
Format: biochemical
QUANTITY KIND: pIC50
Answer as the number alone; pIC50 is minus log10 of concentration in mol/L.

Prompt: Need pIC50 of Cc1cc(COc2cccc(CO)c2)cc(C)c1Oc1ccnc(Nc2ccc(C#N)cc2)n1 [TF9] , thanks.
Response: 7.28

Prompt: Need pIC50 of Cc1cc(COc2ccccc2C#N)cc(C)c1Oc1ccnc(Nc2ccc(C#N)cc2)n1 [TF4] , thanks.
Response: 7.30

Prompt: Need pIC50 of Cc1cc(COc2ccc(CO)cc2)cc(C)c1Oc1ccnc(Nc2ccc(C#N)cc2)n1 [TF8] , thanks.
Response: 7.39

Prompt: Need pIC50 of Cc1cc(COc2ccccc2CO)cc(C)c1Oc1ccnc(Nc2ccc(C#N)cc2)n1 [TF10] , thanks.
Response: 7.26

Prompt: Need pIC50 of Cc1cc(COc2cccnc2C#N)cc(C)c1Oc1ccnc(Nc2ccc(C#N)cc2)n1 [TF12] , thanks.
Response: 7.42

Prompt: Need pIC50 of Cc1cc(COc2ccc(NC(=O)OC(C)(C)C)cc2)cc(C)c1Oc1ccnc(Nc2ccc(C#N)cc2)n1 [TF16] , thanks.
Response: 6.80

Prompt: Need pIC50 of COc1cccc(OCc2cc(C)c(Oc3ccnc(Nc4ccc(C#N)cc4)n3)c(C)c2)c1 [TF6] , thanks.
Response: 7.28

Prompt: Need pIC50 of Cc1cc(COc2ccccc2)cc(C)c1Oc1ccnc(Nc2ccc(C#N)cc2)n1 [TF1] , thanks.
Response: 7.21

---

QUANTITY KIND: melting point

Prompt: Need melting point of Cc1cc(COc2cccc(CO)c2)cc(C)c1Oc1ccnc(Nc2ccc(C#N)cc2)n1 [TF9] , thanks.
Response: 147 to 150 °C

Prompt: Need melting point of Cc1cc(COc2cccnc2)cc(C)c1Oc1ccnc(Nc2ccc(C#N)cc2)n1 [TF11] , thanks.
Response: 237 to 240 °C

Prompt: Need melting point of Cc1cc(COc2ccc(C#N)cc2)cc(C)c1Oc1ccnc(Nc2ccc(C#N)cc2)n1 [TF2] , thanks.
Response: 202 to 205 °C

Prompt: Need melting point of COc1cccc(OCc2cc(C)c(Oc3ccnc(Nc4ccc(C#N)cc4)n3)c(C)c2)c1 [TF6] , thanks.
Response: 149 to 152 °C

Prompt: Need melting point of Cc1cc(COc2cncc(C#N)c2)cc(C)c1Oc1ccnc(Nc2ccc(C#N)cc2)n1 [TF13] , thanks.
Response: 195 to 198 °C

Prompt: Need melting point of Cc1cc(COc2ccc(NC(=O)OC(C)(C)C)cc2)cc(C)c1Oc1ccnc(Nc2ccc(C#N)cc2)n1 [TF16] , thanks.
Response: 184 to 187 °C

Prompt: Need melting point of Cc1cc(COc2ccccc2CO)cc(C)c1Oc1ccnc(Nc2ccc(C#N)cc2)n1 [TF10] , thanks.
Response: 179 to 182 °C

Prompt: Need melting point of Cc1cc(COc2cccnc2C#N)cc(C)c1Oc1ccnc(Nc2ccc(C#N)cc2)n1 [TF12] , thanks.
Response: 245 to 248 °C

Prompt: Need melting point of Cc1cc(COc2ccccc2)cc(C)c1Oc1ccnc(Nc2ccc(C#N)cc2)n1 [TF1] , thanks.
Response: 179 to 182 °C

Prompt: Need melting point of Cc1cc(COc2ccc(CO)cc2)cc(C)c1Oc1ccnc(Nc2ccc(C#N)cc2)n1 [TF8] , thanks.
Response: 209 to 212 °C

Prompt: Need melting point of Cc1cc(COc2ccc(F)nc2)cc(C)c1Oc1ccnc(Nc2ccc(C#N)cc2)n1 [TF14] , thanks.
Response: 185 to 188 °C
